The measured values listed here are drawn from patent US12679877B2.

Test system: natriuretic peptide receptors (NPRA or NPRB)
Assay Method Text: 2-point blood cGMP evaluation (2 and 6 hours) after 15 mg/Kg s.c., cGMP Direct Biotrak EIA
Type: in vivo, CD-1 mice
Measurement Setup: 15 mg/Kg s.c. in mice (n=3); minus baseline 30 pmol/ml (n=12); 6 hours after dosing
No end group written: not given here. *: point of attachment. CH3(CH2)22CO = C24 acyl (CH3(CH2)22CO-), CCCCCCCCCCCCCCCCCCCCCCCC(=O)*; Docosanoyl = CCCCCCCCCCCCCCCCCCCCCC(=O)*; Stearoyl = CCCCCCCCCCCCCCCCCC(=O)*
Response key: 1 means In vivo blood cGMP minus baseline, 6 hour (receptor depletion) >= 10 pmol/mL; 0 means In vivo blood cGMP minus baseline, 6 hour (receptor depletion) < 10 pmol/mL.

Field: example entries. Status: answers known.
{"Substance": "KGGGSLRRSSCFGGRMDRIGAQSGLGCNSFRY (listed as Homo Sapiens) [SEQ ID NO. 5]", "Class Assignment": 1}
{"Substance": "CH3(CH2)20COKKKKGGGSLRRSSCFGGRMDRIGAQSGLGCNSFRY (Docosanoyl-KKKKGGGSLRRSSCFGGRMDRIGAQSGLGCNSFRY; not fully specified (bridges); printed as CH3(CH2)20COKKKKGGGSLRRSSCFGGRMDRIGAQSGLGCNSFRY; cysteine pairing not given here; listed as Homo Sapiens) [SEQ ID NO. 94]", "Class Assignment": 1}
{"Substance": "GGLSKGCFGLKLDRIGSMSGLGC (listed as Homo Sapiens) [SEQ ID NO. 58]", "Class Assignment": 0}
{"Substance": "KKGGGSLRRSSCFGGRMDRIGAQSGLGCNSFRY (listed as Homo Sapiens) [SEQ ID NO. 6]", "Class Assignment": 0}
{"Substance": "CH3(CH2)22COKKKKGGGGLSKGCFGLKLDRIGSMSGLGC ({CH3(CH2)22CO}-KKKKGGGGLSKGCFGLKLDRIGSMSGLGC; not fully specified (bridges); printed as CH3(CH2)22COKKKKGGGGLSKGCFGLKLDRIGSMSGLGC; cysteine pairing not given here; listed as Homo Sapiens) [SEQ ID NO. 122]", "Class Assignment": 1}

Request: Record CH3(CH2)16CO-KKKGGGSLRRSSCFGGRMDRIGAQSGLGCNSFRY (Stearoyl-KKKGGGSLRRSSCFGGRMDRIGAQSGLGCNSFRY; not fully specified (bridges); printed as CH3(CH2)16CO-KKKGGGSLRRSSCFGGRMDRIGAQSGLGCNSFRY; cysteine pairing not given here; listed as Homo Sapiens) [SEQ ID NO. 14] ; criterion: In vivo blood cGMP minus baseline, 6 hour (receptor depletion) no lower than 10 pmol/mL. Met?
Response: 1

Request: Could you please find out whether GGGSLRRSSCFGGRMDRIGAQSGLGCNSFRY (listed as Homo Sapiens) [SEQ ID NO. 4] has In vivo blood cGMP minus baseline, 6 hour (receptor depletion) that meets 10 pmol/mL or exceeds it?
Response: 0

Request: Check this substance for In vivo blood cGMP minus baseline, 6 hour (receptor depletion) at or above 10 pmol/mL: CH3(CH2)16CO-KKGGGSLRRSSCFGGRMDRIGAQSGLGCNSFRY (Stearoyl-KKGGGSLRRSSCFGGRMDRIGAQSGLGCNSFRY; not fully specified (bridges); printed as CH3(CH2)16CO-KKGGGSLRRSSCFGGRMDRIGAQSGLGCNSFRY; cysteine pairing not given here; listed as Homo Sapiens) [SEQ ID NO. 10]
Response: 1
